# Tested on: HCT-116 colon
# protocol-summary: NCI tumour cell line growth inhibition, 48 h
Please mark True if the recorded TGI is equal to or greater than 20 µM, and False if it falls below.

Reported TGI reaches at least 20 µM for "C=CCNC(=S)NC=C(C(N)=O)C(N)=O" ?
True

Reported TGI reaches at least 20 µM for "O=C(O)CNc1ncc2c(n1)-c1ccccc1OC2" ?
True

Reported TGI reaches at least 20 µM for "Cc1nc2ccccc2c(/C=C/c2ccc(C(F)(F)F)cc2)c1C(=O)/C=C/c1ccccc1" ?
False

Reported TGI reaches at least 20 µM for "Cc1cc(NS(=O)(=O)c2ccc(NC(=O)c3ccc4nc5ccccc5c(Nc5ccc(S(N)(=O)=O)cc5)c4c3)cc2)no1" ?
True

Reported TGI reaches at least 20 µM for C=C1C(=O)OC2/C=C(\CO)C3OC3C3OC3(C)CC(OC(=O)/C(=C/C)COC(C)=O)C12 (configuration not stated) ?
False

Reported TGI reaches at least 20 µM for "COc1ccc(/C=N/n2c(Cc3ccccc3)n[nH]c2=O)c(OC)c1" ?
True

Reported TGI reaches at least 20 µM for C=C(Cl)C(Cl)(CBr)CCCC(C)C (configuration not stated) ?
True

Reported TGI reaches at least 20 µM for CCCCCCCCCCCC(=O)OCC(O)CO (configuration not stated) ?
True

Reported TGI reaches at least 20 µM for "CC[n+]1c(/C=C/c2cc(C(=O)OC)n3c2sc2ccccc23)sc2ccccc21" ?
True

Reported TGI reaches at least 20 µM for "Cc1ccc(C(=O)c2[nH]c(NCc3ccccc3)c(C(=S)Nc3ccccc3)c2N)cc1" ?
False

Reported TGI reaches at least 20 µM for "CC(C)CC1C(=O)OC(C)(C)OC1=O" ?
True

Reported TGI reaches at least 20 µM for CCc1cn(C2CC(CO)C(CO)S2)c(=O)[nH]c1=O (configuration not stated) ?
True

Reported TGI reaches at least 20 µM for CC1(C)C2CCC1(C)C(NC(=O)COCCOCC(N)=O)C2 (configuration not stated) ?
True

Reported TGI reaches at least 20 µM for C=CCC(NCc1ccccc1)c1cn(C(=O)OCC)c2ccccc12 (configuration not stated) ?
True

Reported TGI reaches at least 20 µM for "CCN(CC)CCNc1ccc2nc(C)n3c4ccc(OC)cc4c(=O)c1c23" ?
False

Reported TGI reaches at least 20 µM for "O=C(CC(=O)n1nc(-c2ccccc2)c(N=Nc2ccc([N+](=O)[O-])cc2)c1-c1ccccc1)Nc1ccc(Cl)cc1" ?
True

Reported TGI reaches at least 20 µM for "COP(=O)(OC)[C@@](O)(c1ccccc1)[C@@H](O)[C@@H](O)c1ccccc1" ?
True

Reported TGI reaches at least 20 µM for "COc1cc2c(c(OC)c1OC)[C@@H]1CCCCC[C@@H]1CCC2=O" ?
True

Reported TGI reaches at least 20 µM for "O=c1oc2cc(O)ccc2cc1-c1nc2ccccc2o1" ?
True

Reported TGI reaches at least 20 µM for "COc1cccc(/C=C2\COc3ccc(O)c(O)c3C2=O)c1OC" ?
False

Reported TGI reaches at least 20 µM for "Cc1ccc(S(=O)(=O)NC(=O)Nc2ncn[nH]2)cc1" ?
True

Reported TGI reaches at least 20 µM for "CC1=CC2=C(C=O)C(=O)[C@](C)(O)[C@@H](O)C2=CO1" ?
True

Data credit: PubChem BioAssay (NCI)
